Target: CD3ε homodimer protein (human, UniProt P07766 23-126, limits assumed)
Sequence (P07766 23-126 limits assumed): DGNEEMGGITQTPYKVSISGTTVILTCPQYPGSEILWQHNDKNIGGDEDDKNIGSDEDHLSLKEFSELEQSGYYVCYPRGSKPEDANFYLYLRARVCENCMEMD
Test: SPR, immobilized CD3ε homodimer;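 further: biacore T200 surface plasmon resonance at 25 °C, antibody variants flowed as analytes over amine-coupled CD3ε homodimer on a CM4 chip, variant binding amount divided by that of GLS3000 antibody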
parameter: ratio of amounts bound (vs GLS3000)
Just the number.

binder | parameter | experimental-value
GLS3000 K50E (antibody, name in Kabat numbering, V domains shown, one-arm format as m2) VH: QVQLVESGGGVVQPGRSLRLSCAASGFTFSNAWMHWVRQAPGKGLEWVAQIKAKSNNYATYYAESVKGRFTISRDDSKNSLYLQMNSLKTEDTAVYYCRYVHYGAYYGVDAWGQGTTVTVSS VL: DIVMTQSPLSLPVTPGEPASISCRSSQSLVHSNRNTYLHWYQQKPGQAPRLLIYEVSNRFSGVPDRFSGSGSGTDFTLKISRVEAEDVGVYYCGQGTQVPYTFGQGTKLEIK | ratio of amounts bound (vs GLS3000) | 0.24
GLS3000 Y32A (antibody, name in Kabat numbering, V domains shown, one-arm format as m2) VH: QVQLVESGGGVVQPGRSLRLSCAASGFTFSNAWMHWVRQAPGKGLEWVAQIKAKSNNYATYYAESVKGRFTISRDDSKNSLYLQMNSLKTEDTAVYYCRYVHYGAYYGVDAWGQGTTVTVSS VL: DIVMTQSPLSLPVTPGEPASISCRSSQSLVHSNRNTALHWYQQKPGQAPRLLIYKVSNRFSGVPDRFSGSGSGTDFTLKISRVEAEDVGVYYCGQGTQVPYTFGQGTKLEIK | ratio of amounts bound (vs GLS3000) | 0.24
GLS3000 H27dI (antibody, name in Kabat numbering, V domains shown, one-arm format as m2) VH: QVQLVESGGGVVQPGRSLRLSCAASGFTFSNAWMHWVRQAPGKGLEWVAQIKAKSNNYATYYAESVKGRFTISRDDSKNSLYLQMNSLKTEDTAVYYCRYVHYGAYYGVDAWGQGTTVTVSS VL: DIVMTQSPLSLPVTPGEPASISCRSSQSLVISNRNTYLHWYQQKPGQAPRLLIYKVSNRFSGVPDRFSGSGSGTDFTLKISRVEAEDVGVYYCGQGTQVPYTFGQGTKLEIK | ratio of amounts bound (vs GLS3000) | 0.26
GLS3000 S56Q (antibody, name in Kabat numbering, V domains shown, one-arm format as m2) VH: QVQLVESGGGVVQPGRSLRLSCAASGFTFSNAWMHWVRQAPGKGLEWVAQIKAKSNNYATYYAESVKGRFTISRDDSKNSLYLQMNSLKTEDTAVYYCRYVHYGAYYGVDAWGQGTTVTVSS VL: DIVMTQSPLSLPVTPGEPASISCRSSQSLVHSNRNTYLHWYQQKPGQAPRLLIYKVSNRFQGVPDRFSGSGSGTDFTLKISRVEAEDVGVYYCGQGTQVPYTFGQGTKLEIK | ratio of amounts bound (vs GLS3000) | 1.04

Now consider the entry below.
Reported ratio of amounts bound (vs GLS3000) for GLS3000 S56K (antibody, name in Kabat numbering, V domains shown, one-arm format as m2) VH: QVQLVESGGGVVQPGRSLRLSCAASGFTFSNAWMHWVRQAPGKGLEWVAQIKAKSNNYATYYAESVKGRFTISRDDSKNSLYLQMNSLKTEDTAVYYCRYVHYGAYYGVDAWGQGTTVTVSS VL: DIVMTQSPLSLPVTPGEPASISCRSSQSLVHSNRNTYLHWYQQKPGQAPRLLIYKVSNRFKGVPDRFSGSGSGTDFTLKISRVEAEDVGVYYCGQGTQVPYTFGQGTKLEIK : what is it?
1.46
